- Test system: MEF cells
- assay text: Y27632 dose-dependent response of TaCT / tension signal in MEF cells
- Type: cell-based, mouse
- condition set: Mus musculus, Y27632 pre-treatment, flow cytometry, ROCK inhibitor
pIC50: −log10 of the molar value.

>  <entry smiles>
C[C@@H](N)[C@H]1CC[C@H](C(=O)Nc2ccncc2)CC1

>  <pIC50>
6.11

$$$$
